PROCEDURE_SUMMARY: Plasma pharmacokinetics of unchanged ixabepilone
Format: in vivo, human
ASSAY_CONTEXT: human, plasma, intravenous, 70 mg, Ixabepilone Vss, plasma, mean of 8 patients
OBSERVABLE: Vd
Remember to quote the unit after the number.

Identify measured Vd associated with C/C(=C\c1csc(C)n1)[C@@H]1C[C@@H]2O[C@]2(C)CCC[C@H](C)[C@H](O)[C@@H](C)C(=O)C(C)(C)[C@@H](O)CC(=O)N1 [ixabepilone, 15-desoxy-15-aza-epothilone B]
1150 L

###

PROCEDURE_SUMMARY: Plasma pharmacokinetics of unchanged ixabepilone
Type: in vivo, human
ASSAY_CONTEXT: human, plasma, intravenous, 70 mg, Ixabepilone t1/2, plasma, mean of 8 patients
OBSERVABLE: Half-life

Identify measured Half-life associated with C/C(=C\c1csc(C)n1)[C@@H]1C[C@@H]2O[C@]2(C)CCC[C@H](C)[C@H](O)[C@@H](C)C(=O)C(C)(C)[C@@H](O)CC(=O)N1 [ixabepilone, 15-desoxy-15-aza-epothilone B]
> 50 h
